Data origin, for the record: patent US20210070872A1

# SYSTEM_TESTED: T1, biotinylated GITR (human, UniProt Q9Y5U5 26-161, limits assumed, biotinylated (sites not given))
# T1 construct: also called GITR-bio; Biotin-GITR
# T1 sequence: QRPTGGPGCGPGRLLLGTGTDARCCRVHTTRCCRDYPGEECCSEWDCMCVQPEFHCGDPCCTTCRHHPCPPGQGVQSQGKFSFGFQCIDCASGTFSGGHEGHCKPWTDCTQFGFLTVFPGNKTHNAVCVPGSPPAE
# MEASUREMENT_DESCRIPTION: BLI (Octet), biotin-GITR on streptavidin tips, antibody supernatant
# Description: Several hundred germlined antibodies were selected based on binding kinetics as determined by Octet measurements (Octet RED 96 system; ForteBio™ Inc., Menlo Park, Calif.). […] Dissociation of the antibody-antigen complex was measured in wells containing the Octet buffer alone for 5 minutes. […] Affinity, Kₒₙ and Koff were determined with Octet evaluation software v6.3 using a 1:1 binding model with local full fitting.
One threshold, 500000 M⁻¹ s⁻¹, splits the recorded kon values: lower ones are T, equal or higher ones are F.

These solved cases illustrate the format of a correct answer.
germline variant antibody 92 (H1917F05 / K1917F05) (antibody, V domains shown, IGHG1/IGKC expression vectors; measured from CHO culture supernatant; also called Antibody ID 92) VH: QVQLVQSGAEVKKPGASVKVSCKGSGYTFTEYAMYWVRQAPGQGLEWMGLIRTFSGGVTYNQKFQGRATMTVDTSISTAYMELSRLQSDDTAVYYCAKSGTVRGFAYWGQGTLVTVSS VL: DIVMTQSPDSLAVSLGERATINCKSSQSLLNSGNQKNYLTWYHQKPGQPPKMLIYWASTRESGVPDRFSGSGSGTNFTLTISSVQAEDVAVYHCQNDYSYPYTFGQGTKLEIK ... T
germline variant antibody 45 (H1916E05 / K1916E05) (antibody, V domains shown, IGHG1/IGKC expression vectors; measured from CHO culture supernatant; also called Antibody ID 45) VH: QVQLVQSGAEVKKPGASVKVSCKGSGYTFTEYAMYWVRQAPGQGLEWIGLIRTYSGGVSYNQKFQGRVTMTVDTSISTAYMELSRLRSDDTAVYYCAKSGTVRGFAYWGQGTFVTVSS VL: DIVMTQSPDSLAVSLGERATINCKSSQSLLNSGNQKNYLSWYHQKPGQPPKLLIYWASTRESGVPDRFTGSGSGTDFTLTISSVQAEDVAVYYCQNDYSFPYTFGQGTKLEIK ... T
germline variant antibody 36 (H1916D06 / K1916D06) (antibody, V domains shown, IGHG1/IGKC expression vectors; measured from CHO culture supernatant; also called Antibody ID 36) VH: QVQLVQSGAEVKKPGASVKVSCKGSGYTFTDYAMYWVRQAPGQGMEWIGVIRTFSGGVSYNQKFRDRVTMTVDKSISTAYMELSRLRSDDTAVYYCAKSGTVRGFAYWGQGTLVTVSS VL: DIVMTQSPDSLAVSLGERATINCKSSQSLLNSSNQKNYLTWYHQKPGQPPKMLIYWASTRESGVPDRFSGSGSGTDFTLTISSVQEEDVAVYHCQNDYSFPYTFGQGTKLEIK ... F

## Input Criterion: kon strictly below 500000 M⁻¹ s⁻¹. Is it met by germline variant antibody 6 (H1916A07 / K1916A07) (antibody, V domains shown, IGHG1/IGKC expression vectors; measured from CHO culture supernatant; also called Antibody ID 6) VH: QVQLVQSGAEVKKPGASVKVSCKGSGYTFTEYAMYWVRQAPGQGLEWMGLIRTFSGGVSYNQKFKGRATMTVDTSISTAYMELSRLRSDDTAVYYCAKSGTVRGFAYWGQGTLVTVSS VL: DIVMTQSPDSLAVSLGERATINCKSSQSLLNSGNQKNYLSWYQQKPGQPPKMLIYWASTRESGVPDRFTGSGSGTDFTLTISSLQAEDVAVYHCQNDYSYPYTFGQGTKLEIK ?
## Output T

## Input What do we get for germline variant antibody 47 (H1916E08 / K1916E08) (antibody, V domains shown, IGHG1/IGKC expression vectors; measured from CHO culture supernatant; also called Antibody ID 47) VH: QVQLVQSGAEVKKPGASVKVSCKASGYTFTDYAMYWVRQAPGQGMEWMGVIRTYSGGVTYNQKFRDRVTMTVDKSISTAYMELSRLRSDDTAVYYCAKSGTVRGFADWGQGTLVTVSS VL: DIVMTQSPDSLAVSLGERATINCKSSQSLLNSGNQKNYLSWYQQKPGQPPKLLIYWASTRESGVPDRFTGSGSGTDFTLTISSVQAEDVAVYHCQNDYSFPYTFGQGTKLEIK ?
## Output T

## Input And for germline variant antibody 54 (H1916F09 / K1916F09) (antibody, V domains shown, IGHG1/IGKC expression vectors; measured from CHO culture supernatant; also called Antibody ID 54) VH: QVQLVQSGAEVKKPGASVKVSCKASGYTFTEYAMHWVRQAPGQGLEWMGLIRTYSGGVSYNQKFQGRATMTVDTSISTAYMELSRLRSDDTAVYYCAKSGTVRGFAYWGQGTLVTVSS VL: DIVMTQSPDSLAVSLGERATINCKSSQSLLNSSNQKNYLTWYQQKPGQPPKLLIYWASTRESGVPDRFTGSGSGTDFTLTISSVQAEDVAVYHCQNDYSFPYTFGQGTKLEIK ?
## Output F

## Input What do you get for germline variant antibody 37 (H1916D07 / K1916D07) (antibody, V domains shown, IGHG1/IGKC expression vectors; measured from CHO culture supernatant; also called Antibody ID 37) VH: QVQLVQSGTEVKKPGASVKVSCKGSGYTFTEYAMYWVRQAPGQGMEWIGLIRTFSGEVTYNQKFKDRVTMTVDTSISTAYMELSRLRSDDTAVYYCAKSGTVRGFAYWGQGTLVTVSS VL: DIVMTQSPDSLAVSLGERATINCKSSQSLLNSGNQKNYLTWYQQKPGQPPKLLIYWASTRESGVPDRFTGSGSGTDFTLTISSLQAEDVAVYHCQNEYSYPYTFGQGTKLEIK ?
## Output F

## Input Entry to check: germline variant antibody 39 (H1916D09 / K1916D09) (antibody, V domains shown, IGHG1/IGKC expression vectors; measured from CHO culture supernatant; also called Antibody ID 39) VH: QVQLVQSGAEVKKPGASVKVSCKGSGYTFTGYAMHWVRQAPGQGLEWMGLIRTYSGGVSYNQKFRERATMTVDTSISTAYMELSRLRSDDTAVYYCAKSGTVRGFAYWGQGTLITVSS VL: DIVMTQSPDSLAVSLGERATINCKSSQSLLNSSNQKNYLTWYQQKPGQPPKLLIYWASTRESGVPDRFTGSGSGTDFTLTISSVQAEDVAVYHCQNEYSFPYTFGQGTKLEIK
## Output F

## Input And germline variant antibody 101 (H1917H01 / K1917H01) (antibody, V domains shown, IGHG1/IGKC expression vectors; measured from CHO culture supernatant) VH: QVQLVQSGAEVKKPGASVKVSCKASGYTFTDYAMHWVRQAPGQGLEWMGLIRTFSGGVSYNQKFQDRVTMTVDKSISTAYMELSRLRSDDTAVYYCAKSGTVRGFAYWGQGTLVTVSS VL: DIVMTQSPDSLAVSLGERATINCKSSQSLLNSSNQKNYLTWYHQKPGQPPKLLIYWASTRESGVPDRFSGSGSGTDFTLTISSVQAEDVAVYHCQNDYSFPYTFGQGTKLEIK ?
## Output F

## Input Further, for germline variant antibody 96 (H1917G06 / K1917G06) (antibody, V domains shown, IGHG1/IGKC expression vectors; measured from CHO culture supernatant; also called Antibody ID 96) VH: QVQLVQSGAEVKKPGASVKVSCKGSGYTFTEYAMYWVRQAPGQGMEWMGVIRTYSGGLTYNQKFRDRVTMTVDTSISTAYMELSRLRSDDTAVYYCAKSGTVRGFAYWGQGTLVTVSS VL: DIVMTQSPDSLAVSLGERATINCKSSQSLLNSSNQKNYLSWYHQKPGQPPKLLIYWASTRESGVPDRFSGSGSGTDFTLTISSLQAEDVAVYHCQNDYSYPYTFGQGTKLEIK ?
## Output T
